Target: T1, B7-H3 on CHO-K1 cells stably transfected with B7-H3 (GenScript #M00536) (UniProt Q5ZPR3 29-534, limits assumed)
T1 sequence (looked up): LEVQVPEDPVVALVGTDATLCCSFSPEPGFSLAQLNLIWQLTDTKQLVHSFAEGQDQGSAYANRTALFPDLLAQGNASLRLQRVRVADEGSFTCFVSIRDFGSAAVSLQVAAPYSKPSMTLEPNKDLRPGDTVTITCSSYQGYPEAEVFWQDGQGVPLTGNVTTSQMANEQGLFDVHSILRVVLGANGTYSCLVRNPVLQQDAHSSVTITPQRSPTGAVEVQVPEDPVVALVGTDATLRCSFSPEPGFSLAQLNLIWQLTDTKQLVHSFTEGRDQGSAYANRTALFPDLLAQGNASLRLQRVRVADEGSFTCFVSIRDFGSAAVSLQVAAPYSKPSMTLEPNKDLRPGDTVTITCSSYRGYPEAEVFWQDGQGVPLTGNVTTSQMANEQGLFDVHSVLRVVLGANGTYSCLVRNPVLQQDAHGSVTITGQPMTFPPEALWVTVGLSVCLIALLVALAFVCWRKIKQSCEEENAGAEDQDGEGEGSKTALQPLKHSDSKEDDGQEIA
Test: cell-based or functional assay
RECORDED_ENDPOINT: ADCC reporter assay, EC50 Value, CHOK1/B7-H3 cells (µg/mL)

[
  {
    "BINDER": "40511p1.1.D6 IgG (antibody, V domains shown) VH: DVQLVESGGGVVRPGESLTLSCAASGFTINSYAVSWVRQAPGEGLEWVSGISGSGVRYYADSVKGRFTISRDNSNNTLYLQMNSLRAEDTAVYYCARSNKVTWNNFFDYWGLGTLVTVSS VL: EVVLTQSPGTLTLSPGERATLSCRASRSILTSLAWYQQKPGQAPRLLIYNTVTRATGIPARFSGSGSGTEFTLTINSLQSEDFAVYYCQQYYDWPPLTFGGGTKVEIK",
    "REPORTED_MEASUREMENT": 0.014
  }
]

Value source: patent US20260008852A1
